# tested_target: human OT7T175 (metastin receptor) (human, UniProt Q969F8 1-398)
# Sequence (Q969F8 whole entry L364H): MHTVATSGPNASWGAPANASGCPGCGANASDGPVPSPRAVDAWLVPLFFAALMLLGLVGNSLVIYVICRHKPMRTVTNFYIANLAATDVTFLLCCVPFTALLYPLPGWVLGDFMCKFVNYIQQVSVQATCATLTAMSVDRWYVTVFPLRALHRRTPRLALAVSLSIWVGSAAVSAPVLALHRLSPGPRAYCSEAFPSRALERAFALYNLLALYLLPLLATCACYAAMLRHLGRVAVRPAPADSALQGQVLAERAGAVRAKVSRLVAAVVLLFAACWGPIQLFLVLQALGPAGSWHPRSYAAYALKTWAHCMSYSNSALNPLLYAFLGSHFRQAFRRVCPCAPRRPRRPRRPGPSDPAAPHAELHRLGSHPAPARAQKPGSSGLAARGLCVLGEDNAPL
# assay_method_text: cell-based or functional assay
Non-standard residues stand in square brackets, D forms with d. No end group written: not given here. *: point of attachment. GuAmb = 4-guanidinomethylbenzoyl, N=C(N)NCc1ccc(C(=O)*)cc1; Arg(Me) = CNC(=N)NCCC[C@H](N)C(=O)O; azaGly = NNC(=O)O
value_type: Ca ion level-increasing activity (FLIPR, 40 s) (EC50/MS10 EC50)
Respond with the bare value in EC50/MS10 EC50.

Would you please look over these solved cases?
binder: YNWNSXGLRF (Cha6; C-terminal amide, also called Compound No. 156) [[Cha6]MS10]
unit_descriptor: EC50/MS10 EC50
observed_value: 0.9
//
binder: GuAmb-FGL[Arg(Me)]F-NH2 (SMILES CNC(=N)NCCC[C@H](NC(=O)[C@H](CC(C)C)NC(=O)CNC(=O)[C@H](Cc1ccccc1)NC(=O)c1ccc(CNC(=N)N)cc1)C(=O)N[C@@H](Cc1ccccc1)C(N)=O) [des(1-5)-GuAmb-[Arg(Me)9]MS10]
unit_descriptor: EC50/MS10 EC50
observed_value: 5

Request: What value of measured Ca ion level-increasing activity (FLIPR, 40 s) is listed for [dY]WNSF[azaGly]L[Arg(Me)]F-NH2 (N-terminus assumed; SMILES CNC(=N)NCCC[C@H](NC(=O)[C@H](CC(C)C)NC(=O)NNC(=O)[C@H](Cc1ccccc1)NC(=O)[C@H](CO)NC(=O)[C@H](CC(N)=O)NC(=O)[C@H](Cc1c[nH]c2ccccc12)NC(=O)[C@H](N)Cc1ccc(O)cc1)C(=O)N[C@@H](Cc1ccccc1)C(N)=O, also called Compound No. 222) [des(1)-[D-Tyr2,AzaGly7,Arg(Me)9]MS10] ?
Response: 2.7
